Measured values drawn from PubChem BioAssay (NCI) for this set.

For each record, write down the corresponding growth inhibition.
# method_notes: NCI Yeast Anticancer Drug Screen. Data for the mec2-1 strain (AID 157)
# condition_details: S. cerevisiae mec2-1 strain, at 3.7 µM, active compounds read high
Compounds without any hit were thinned out: in the full panel of roughly 79,000, 15% have a hit.
Numbers only, in %.

CCOc1ccc2c(c1)c(CC(=O)O)cn2C :: -2
CCc1ccc(NS(=O)(=O)c2ccccc2)c([N+](=O)[O-])c1 :: 8
CCN(CC)[P+](c1ccccc1O)(N(CC)CC)N(CC)CC :: -39
c1ccc(-c2ccnc3c2ccc2c(-c4ccccc4)ccnc23)cc1 :: 24
CC(O)C(O)C(O)C(/C=N\Nc1ccccc1)=N/Nc1ccccc1 (stereo not drawn) :: 1

Give growth inhibition for each of the items listed below.
1. O=c1ssc2ncccc12
2. CN1c2ccc(Cl)cc2C(=O)NC1c1ccc([N+](=O)[O-])s1 (stereo not drawn)
3. Fc1ccc(NC(=S)SCc2ccc(Cl)c(Cl)c2)cc1F

Response:
1. 6
2. -52
3. -4

* * *

# method_notes: NCI Yeast Anticancer Drug Screen. Data for the mlh1 rad18 strain (AID 175)
# condition_details: S. cerevisiae mlh1 rad18 strain growth inhibition; at 50.0 µM
Compounds without any hit were thinned out: in the full panel of roughly 79,000, 15% have a hit. The source made the active and inactive calls. No stated cut-off is given here; in the data, active means growth inhibition above about 70%; inactive means the rest.
Your response should consist of one outcome taken from active, inactive

Illustrative cases are given below, each with its answer.
COc1ccc2nc3c([N+](=O)[O-])ccc(NCCN(C)C)c3c(NCCN(C)C)c2c1 :: inactive
CC(Br)C(=O)c1ccc2cc(Br)c3ccccc3c2c1 (stereo unspecified) :: inactive
c1ccc2c(c1)sc1nc3ccncc3nc12 :: inactive
O=[N+]([O-])c1cccc([N+](=O)[O-])c1S(=O)(=O)c1ccccc1 :: active
CC(=O)SCCC[Si](C)(C)CCCSC(C)=O :: inactive

Continue with the compound presented below.
Prompt: Look up the recorded call for CC1(C)C(=O)OC(n2cc(F)c(=O)[nH]c2=O)C1=O (stereo unspecified) in this test.
Response: inactive

* * *

# method_notes: NCI Yeast Anticancer Drug Screen. Data for the wt2 strain (AID 169);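 also: 0% = growth of vehicle-treated yeast cultures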
# condition_details: S. cerevisiae wt2 strain growth inhibition; at 100.0 µM
The panel holds about 79,000 compounds, 15% with a hit somewhere; the sample as a whole holds those more often. Calls of active or inactive are those of the source. No stated cut-off is given here; in the data, active means growth inhibition above about 70%; inactive means the rest.
Your response should consist of one outcome taken from y for active, n for inactive

Brc1ccc(-c2cc3c(cc2C2SCCS2)OCO3)cc1 :: n

Prompt: Look up the recorded call for CC1(Cl)CC(O)C2(CC1Br)C1(C)OC1C1OC1(Br)C2(C)C (stereo not given) in this test.
Response: y

Prompt: Look up the recorded call for S=C(N/N=C(/c1ccccc1)c1ccccn1)N1CCCCCC1 in this test.
Response: n

Prompt: Look up the recorded call for C=C1CC(Cn2cc(Br)c(=O)[nH]c2=O)(c2ccc(-c3ccccc3)cc2)OC1=O (stereo not given) in this test.
Response: y

Prompt: Look up the recorded call for CC(C)C1=CC2=C[C@H](O)[C@H]3C(C)(C)CCC[C@]3(C)C2=C(O)C1=O in this test.
Response: y

* * *

For each record, write down the corresponding growth inhibition.
# method_notes: NCI Yeast Anticancer Drug Screen. Data for the bub3 strain (AID 167)
# condition_details: S. cerevisiae bub3 mutant strain, at 100.0 µM, active compounds read high
Compounds without any hit were thinned out: in the full panel of roughly 79,000, 15% have a hit.
One number for each entry, in %.

Oc1c(Br)cc(Br)cc1C1CCCCC1 :: 97
O=C(O)c1cccc(-c2c3ccc(=O)cc-3oc3cc(O)ccc23)c1 :: 92
OC1(c2ccccc2)CSC2=Nc3ccccc3C3CCN1N23 (stereo not drawn) :: 91
COCCOC(=O)CCn1cc(F)c(=O)[nH]c1=O :: 17
CCc1ccc(NS(=O)(=O)c2ccccc2)c([N+](=O)[O-])c1 :: 67

Give growth inhibition for each of the items listed below.
1. CCCCCCCCCCCCCC[N+](C)(CC(=O)[O-])Cc1ccccc1 (stereo not drawn)
2. O=C1C(=O)c2ccccc2C=C1[N+](=O)[O-]

Response:
98
49

Give growth inhibition for each of the items listed below.
1. O=C1c2ccccc2C(=O)c2cc(CBr)ccc21
2. O=[N+]([O-])c1cc2no[n+]([O-])c2cc1N1CCCCC1

Response:
54
96
